- Test system: ERR1 (also known as ERR-α or ERR-1) (Homo sapiens, UniProt P11474)
- Procedure text: TR-FRET assay (disruption of co-activator peptide binding)
- Cond: 6His-tagged ERR1 LBD, GST-hSRC2 co-activator polypeptide; average of 3 independent experiments
Provide the recorded EC50 for the entries that follow.

I'd like to know its EC50. The compound in question is O=C1N=C(N2CCC(C(=O)NS(=O)(=O)N3CCCC3)CC2)S/C1=C\c1ccc2c(cnn2Cc2ccc(Cl)cc2C(F)(F)F)c1 [Example 174]
58.1 nM

Follow-up item: CN1C2CCC1CN(C1=NC(=O)/C(=C/c3ccc4c(cnn4Cc4ccc(C(F)(F)F)cc4C(F)(F)F)c3)S1)C2 [Example 103]
12.2 nM

Follow-up item: O=C1N=C(N2CCC(O)(C(=O)O)CC2)S/C1=C\c1ccc2c(cnn2Cc2ccc(Cl)cc2C(F)(F)F)c1 [Example 268]
15 nM

Follow-up item: CC[C@H]1CN(C2=NC(=O)/C(=C/c3ccc4c(cnn4Cc4ccc(C(F)(F)F)cc4C(F)(F)F)c3)S2)CCN1 [Example 124]
9 nM

Follow-up item: NCC(=O)N1CCCN(C2=NC(=O)/C(=C/c3ccc4c(cnn4Cc4ccc(Cl)cc4C(F)(F)F)c3)S2)CC1 [Example 138]
19 nM

Follow-up item: NCC1CN(C2=NC(=O)/C(=C/c3ccc4c(cnn4Cc4ccc(C(F)(F)F)cc4C(F)(F)F)c3)S2)CCO1 (stereo not shown) [Example 201]
47 nM

Follow-up item: O=C1N=C(N2C[C@H](O)[C@@H](N3CCOCC3)C2)S/C1=C\c1ccc2c(cnn2Cc2ccc(C(F)(F)F)cc2C(F)(F)F)c1 [Example 225]
18 nM

###

- Test system: ERR1 (also known as ERR-α or ERR-1) (Homo sapiens)
- Sequence (P11474 193-421 limits assumed): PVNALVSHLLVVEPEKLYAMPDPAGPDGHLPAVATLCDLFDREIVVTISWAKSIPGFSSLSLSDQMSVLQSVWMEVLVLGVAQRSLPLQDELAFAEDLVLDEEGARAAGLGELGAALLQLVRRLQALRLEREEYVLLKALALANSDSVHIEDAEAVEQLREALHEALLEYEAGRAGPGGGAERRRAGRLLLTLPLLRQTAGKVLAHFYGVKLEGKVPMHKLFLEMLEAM
- Procedure text: TR-FRET assay (disruption of co-activator peptide binding)
- Cond: 6His-tagged ERR1 LBD, GST-hSRC2 co-activator polypeptide; average of 3 independent experiments
pEC50: −log10 of the molar value.
Would you please tag the item label 1 when its pEC50 is 8 or above, and label 0 when it is below?

In plain terms: is recorded pEC50 at least 8 for CC1(C(=O)O)CCN(C2=NC(=O)/C(=C/c3ccc4c(cnn4Cc4ccc(Cl)cc4C(F)(F)F)c3)S2)CC1 [Example 75] ?
label 0

Follow-up item: COC[C@H]1CN(C2=NC(=O)/C(=C/c3ccc4c(cnn4Cc4ccc(C(F)(F)F)cc4C(F)(F)F)c3)S2)CCN1 [Example 210]
label 0

Follow-up item: O=C1CN(C2=NC(=O)/C(=C/c3ccc4c(cnn4Cc4ccc(Cl)cc4C(F)(F)F)c3)S2)C1 [Example 102]
label 0

Follow-up item: O=C1N=C(N2CCO[C@@H](CO)C2)S/C1=C\c1ccc2c(cnn2Cc2ccc(O)cc2C(F)(F)F)c1 [Example 249]
label 1
